- Tested on: Muscarinic acetylcholine receptor M1 (Homo sapiens)
- Method description: CHRM1 blockers of acetylcholine calcium response – CHO-K1 cells, Fluo-8 calcium fluorescence, 1536-well, primary screen (AID 588852);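 further: peak over basal fluorescence ratio during 140 s after agonist addition; 0% = ACh EC80 plus DMSO and 100% = DMSO alone without agonist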
- Conditions: CHO-K1 hM1, Fluo-8 calcium fluorescence, ACh EC80 antagonist; at 3 µM; active compounds read high
The whole screen tested about 360,000 compounds, of which about 4,600 (1.3%) were called active. This is one part of a sample in which actives are shown more often than they occur.
Mark YES for reported inhibition of -10% or greater; mark NO for anything smaller.

Prompt line: Has `CCOC(=O)c1cc2cc(C)ccc2[nH]1` a recorded inhibition greater than or equal to -10%?
Response line: YES

Prompt line: Has `Cc1ccc(-c2ccc(=O)n(Cc3ccc(F)cc3Cl)n2)cc1` a recorded inhibition greater than or equal to -10%?
Response line: NO

Prompt line: Has `CSCCNCc1cn(-c2ccc(F)cc2F)nc1-c1ccccc1C` a recorded inhibition greater than or equal to -10%?
Response line: NO

Prompt line: Has `Cc1cccc(CN2CCC(n3nccc3NC(=O)c3ccccc3C)CC2)n1` a recorded inhibition greater than or equal to -10%?
Response line: YES

Prompt line: Has `Cn1cncc1COC(=O)c1ccc(Cl)cc1` a recorded inhibition greater than or equal to -10%?
Response line: YES

====

- Tested on: Muscarinic acetylcholine receptor M1 (Homo sapiens)
- Method description: CHRM1 blockers of acetylcholine calcium response – CHO-K1 cells, Fluo-8 calcium fluorescence, 1536-well, primary screen (AID 588852)
- Conditions: CHO-K1 hM1, Fluo-8 calcium fluorescence, ACh EC80 antagonist; at 3 µM
Hit rate of the full screen: of about 360,000 compounds, about 4,600 (1.3%) were called active.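 Rule for the calls: active = percent inhibition above its own plate's cutoff, namely the mean of that plate's compound wells plus 3 SD; inactive = the rest.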 Shown is part of a subset that was picked to be rich in actives.
Outcome (select one): 1 = active, -1 = inactive

Prompt line: Record lookup: outcome of this test for `CCOC(=O)c1ccc(-c2ccc3ncnc(N(C)Cc4sccc4C)c3c2)o1` ?
Response line: -1

Prompt line: Record lookup: outcome of this test for `O=S(=O)(/C=C/c1ccccc1)N1CCNCC1` ?
Response line: -1

Prompt line: Record lookup: outcome of this test for `COc1cc(C(=S)NC2CCCCC2)ccc1O` ?
Response line: 1

Prompt line: Record lookup: outcome of this test for `O=C(Nc1cc(Br)ccc1F)c1nc[nH]c1C(=O)NCc1ccccc1` ?
Response line: -1

Prompt line: Record lookup: outcome of this test for `COc1cc(C(=S)N2CCOCC2)ccc1O` ?
Response line: -1

Prompt line: Record lookup: outcome of this test for `Cc1cc(NC(=O)COC(=O)c2ccc(F)c(S(=O)(=O)N3CCOCC3)c2)no1` ?
Response line: -1

Prompt line: Record lookup: outcome of this test for `O=C(Oc1ccc(-c2nnco2)cc1)c1ccc(F)c(S(=O)(=O)N2CCOCC2)c1` ?
Response line: 1

Prompt line: Record lookup: outcome of this test for `CC1(C)CC(N2CCN(C(c3ccccc3)c3ccccc3)CC2)=CC(=[N+]2CCCCC2)C1` ?
Response line: 1

Prompt line: Record lookup: outcome of this test for COc1ccc(CNC(=O)C(c2ccc(O)cc2)N(Cc2ccco2)C(=O)c2snc(C(N)=O)c2N)cc1 (centres undefined) ?
Response line: 1

====

- Tested on: Muscarinic acetylcholine receptor M1 (Homo sapiens)
- Method description: CHRM1 blockers of acetylcholine calcium response – CHO-K1 cells, Fluo-8 calcium fluorescence, 1536-well, primary screen (AID 588852);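 further: peak over basal fluorescence ratio during 140 s after agonist addition; 0% = ACh EC80 plus DMSO and 100% = DMSO alone without agonist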
- Conditions: CHO-K1 hM1, Fluo-8 calcium fluorescence, ACh EC80 antagonist; at 3 µM
The campaign covered roughly 360,000 compounds. About 4,600 (1.3%) were called active.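 Rule for the calls: active = percent inhibition above its own plate's cutoff, namely the mean of that plate's compound wells plus 3 SD; inactive = the rest.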 This is one part of a sample in which actives are shown more often than they occur.
Outcome (select one): 1 (yes) = active, 0 (no) = inactive

Prompt line: Record lookup: outcome of this test for `CC(=O)Nc1ccc(-c2csc(NC(=O)Nc3ccccc3)n2)cc1` ?
Response line: 1 (yes)

Prompt line: Record lookup: outcome of this test for `CCNCCC(=O)N1c2ccccc2Sc2ccc(NC(=O)OCC)cc21` ?
Response line: 1 (yes)

Prompt line: Record lookup: outcome of this test for CCC1Sc2ccc(S(=O)(=O)CCC(=O)NCc3cccs3)cc2NC1=O (stereo unspecified) ?
Response line: 0 (no)

Prompt line: Record lookup: outcome of this test for Cc1ccc(-c2cnc(C(O)c3cc(Cl)cc(Cl)c3)[nH]2)cc1 (stereo unspecified) ?
Response line: 0 (no)

Prompt line: Record lookup: outcome of this test for CCCCCn1c(=O)[nH]c2cc(C(=O)NCCCN3CCCCC3C)ccc2c1=O (stereo unspecified) ?
Response line: 1 (yes)

Prompt line: Record lookup: outcome of this test for `O=C(CCNc1n[nH]c(=O)[nH]c1=O)N/N=C\c1ccc(Br)cc1` ?
Response line: 0 (no)

Prompt line: Record lookup: outcome of this test for CC1CCCCN1CCCNC(=O)Cn1ncc2c([nH]c3ccccc32)c1=O (stereo unspecified) ?
Response line: 0 (no)

Prompt line: Record lookup: outcome of this test for Cc1c(CN2CCCC(C(=O)c3cccc(Cl)c3)C2)c(=O)n(-c2ccccc2)n1C (stereo unspecified) ?
Response line: 1 (yes)

Prompt line: Record lookup: outcome of this test for `Cc1cccc(N2CCN(Cc3c(C)n(C)n(-c4ccccc4)c3=O)CC2)c1C` ?
Response line: 0 (no)

Prompt line: Record lookup: outcome of this test for `CCOC(=O)Nc1ccc2c(c1)N(C(=O)CCCl)c1ccccc1[S@]2=O` ?
Response line: 0 (no)

Prompt line: Record lookup: outcome of this test for `CCCN1CNC(=S)N(CCc2ccccc2)C1` ?
Response line: 0 (no)

====

I'd appreciate it if you could supply inhibition values for the items below.
- Tested on: Muscarinic acetylcholine receptor M1 (Homo sapiens)
- Method description: CHRM1 blockers of acetylcholine calcium response – CHO-K1 cells, Fluo-8 calcium fluorescence, 1536-well, primary screen (AID 588852);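 further: peak over basal fluorescence ratio during 140 s after agonist addition; 0% = ACh EC80 plus DMSO and 100% = DMSO alone without agonist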
- Conditions: CHO-K1 hM1, Fluo-8 calcium fluorescence, ACh EC80 antagonist; at 3 µM; active compounds read high
About 4,600 (1.3%) of roughly 360,000 compounds were called active. For the sample, actives were picked, then their nearest neighbours and some compounds at random.
Report the figure in % without appending any unit label.

Prompt line: Report inhibition for `C=CCC1(CC=C)CCCN1C(=O)c1cc(COc2ccc(-n3cncn3)cc2)on1` please.
Response line: 38.7

Prompt line: Report inhibition for `CCCCC(=O)N(C)c1c(CC)nc2c(OCc3ccc(Cl)cc3Cl)cccn12` please.
Response line: 23.1

Prompt line: Report inhibition for `O=C(Nc1cccc(Cl)c1)c1cncn1-c1ccc(F)cc1` please.
Response line: -4.54

Prompt line: Report inhibition for `Cc1nc2c(OCc3ccc(Cl)cc3)cccn2c1N(C)Cc1cccs1` please.
Response line: 38.4

Prompt line: Report inhibition for `O=C(NCc1ccccc1Cl)C1CCN(S(=O)(=O)N2CCOCC2)CC1` please.
Response line: 0.29

Prompt line: Report inhibition for `CCN1CCN(c2ccc([N+](=O)[O-])cc2C(=O)c2ccc(Cl)cc2)CC1` please.
Response line: 96.3

Prompt line: Report inhibition for `CN(CCO)C(=O)c1nc[nH]c1C(=O)N(C)Cc1ccccc1` please.
Response line: -4.9

Prompt line: Report inhibition for `Cc1cc2cc3c(cc2nc1SCC(=O)Nc1c(C)cccc1C)CCC3` please.
Response line: -12.5

Prompt line: Report inhibition for `CCNC(=S)NNC(=O)C1CCN(Cc2ccccc2)CC1` please.
Response line: -7.27

Prompt line: Report inhibition for `O=C(NCc1ccccc1CN1CCCC1)C1CCN(S(=O)(=O)c2ccc(Cl)cc2)CC1` please.
Response line: 35.7

Prompt line: Report inhibition for `Cc1nc2c(OCc3cccc(Cl)c3)cccn2c1N(C)CC1CC1` please.
Response line: 68.1

Prompt line: Report inhibition for `CN1C(=O)c2ccc(NC(=O)c3c(F)c(F)c(F)c(F)c3F)cc2C1=O` please.
Response line: -10

Prompt line: Report inhibition for O=C(NC1CCCCC1)C1CCC(CNS(=O)(=O)c2ccccc2)CC1 (centres undefined) please.
Response line: 2.63

Prompt line: Report inhibition for O=[N+]([O-])c1ccc(CN2CC(N3CC=CC3)CS2(=O)=O)cc1 (centres undefined) please.
Response line: 7.78

====

I'd appreciate it if you could supply inhibition values for the items below.
- Tested on: Muscarinic acetylcholine receptor M1 (Homo sapiens) (UniProt P11229)
- Sequence (P11229 whole entry, looked up): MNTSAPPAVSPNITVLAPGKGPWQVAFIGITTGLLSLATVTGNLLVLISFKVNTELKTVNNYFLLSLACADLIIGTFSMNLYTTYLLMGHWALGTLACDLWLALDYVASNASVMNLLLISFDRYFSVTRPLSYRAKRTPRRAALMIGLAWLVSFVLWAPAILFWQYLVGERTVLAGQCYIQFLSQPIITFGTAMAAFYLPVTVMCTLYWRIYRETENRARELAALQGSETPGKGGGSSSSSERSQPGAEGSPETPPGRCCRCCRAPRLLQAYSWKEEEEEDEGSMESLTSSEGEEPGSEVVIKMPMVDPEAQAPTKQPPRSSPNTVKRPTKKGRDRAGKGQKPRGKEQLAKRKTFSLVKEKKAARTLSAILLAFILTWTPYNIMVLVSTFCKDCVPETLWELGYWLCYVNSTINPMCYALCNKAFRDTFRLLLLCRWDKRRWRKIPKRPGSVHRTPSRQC
- Method description: CHRM1 blockers of acetylcholine calcium response – CHO-K1 cells, Fluo-8 calcium fluorescence, 1536-well, primary screen (AID 588852);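 further: peak over basal fluorescence ratio during 140 s after agonist addition; 0% = ACh EC80 plus DMSO and 100% = DMSO alone without agonist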
- Conditions: CHO-K1 hM1, Fluo-8 calcium fluorescence, ACh EC80 antagonist; at 3 µM; active compounds read high
Among all 360,000 compounds or so, about 4,600 (1.3%) were called active. The full list was thinned out, with actives kept by preference.
Report the figure in % without appending any unit label.

Prompt line: Report inhibition for Cc1ccc(S(=O)(=O)NC(C)C(=O)NCc2ccc(Cl)cc2)cc1 (centres undefined) please.
Response line: 5.87

Prompt line: Report inhibition for `CCCCOc1ccc(CON(C(C)=O)C(C)=O)cc1Cl` please.
Response line: 6.46

Prompt line: Report inhibition for `Cc1ccc2cc(C)c(N3CCC(C)CC3)nc2c1` please.
Response line: 1.39

Prompt line: Report inhibition for `CN(Cc1ccc(F)cc1)C(=O)COc1ccc2ccccc2c1` please.
Response line: 24.7

Prompt line: Report inhibition for CC(=O)NC(CC(=O)Nc1cccc(S(=O)(=O)N2CCCC2)c1)c1ccccc1 (centres undefined) please.
Response line: 3.34

Prompt line: Report inhibition for `CCN(CC(=O)N1CCCC1)S(=O)(=O)c1ccc(F)cc1` please.
Response line: -13

Prompt line: Report inhibition for CCOC(=O)c1ccc(N2C(=O)CC(N3CCC(C(=O)OCC)CC3)C2=O)cc1 (centres undefined) please.
Response line: 2.05

Prompt line: Report inhibition for COc1cccc(NC(=O)Nc2nnc(N3CCCCC3C)s2)c1 (centres undefined) please.
Response line: -9.08

Prompt line: Report inhibition for `CCN(CCCNC(=O)CSc1cc(=O)n(C)c2cc(Cl)ccc12)Cc1ccccc1` please.
Response line: 2.6

Prompt line: Report inhibition for CCOP(=O)(OCC)C(Cc1ccccc1)N=C(c1ccccc1)c1ccccc1 (centres undefined) please.
Response line: -5.83

Prompt line: Report inhibition for CCCCCCC(O)(CCN1CCCCC1)c1ccccc1 (centres undefined) please.
Response line: 98.8

Prompt line: Report inhibition for C#CC(CCN1CCCCC1)(OC)c1ccccc1 (centres undefined) please.
Response line: 93.9

Prompt line: Report inhibition for CCOC(=O)c1cccc(NC(=O)CN2C(=O)C3CC=CCC3C2=O)c1 (centres undefined) please.
Response line: -6.58

Prompt line: Report inhibition for CCCCOC(=O)c1ccc(N2C(=O)CC(N3CCN(C/C=C/c4ccccc4)CC3)C2=O)cc1 (centres undefined) please.
Response line: 23.9

Prompt line: Report inhibition for CC(Oc1cc2oc(=O)c3c(c2cc1Cl)CCCC3)C(=O)NCc1ccncc1 (centres undefined) please.
Response line: 1.37

Prompt line: Report inhibition for O=C1OC(Cc2ccccc2)C(c2ccccc2)C1=O (centres undefined) please.
Response line: -4.64

Prompt line: Report inhibition for `Cc1nc(COc2cc3oc(=O)cc(C)c3cc2Cl)cs1` please.
Response line: -7.17

Prompt line: Report inhibition for `OCCc1ccc(NCCc2ccco2)cc1` please.
Response line: 0.71

Prompt line: Report inhibition for O=C(c1ccccc1)C(O)(CN1CCCCC1)c1ccccc1 (centres undefined) please.
Response line: 1.74

Prompt line: Report inhibition for COc1cccc(CNC(=O)CCC2CCCN(Cc3ccc(OC(F)F)cc3)C2)c1 (centres undefined) please.
Response line: 20.6

Prompt line: Report inhibition for `COc1ccc(CN(CC(=O)NC2CCCC2)C(=O)CCC(=O)Nc2cc(C)on2)cc1` please.
Response line: -0.71

Prompt line: Report inhibition for `CCCCC[C@H]1CN(C2CCCCC2)C(=O)[C@@H]1CC(=O)NCc1ccc(OC)cc1` please.
Response line: -1.3

Prompt line: Report inhibition for `CC(C)(c1ccccc1)c1ccc(OCCN2CCCC2)cc1` please.
Response line: 8.05

Prompt line: Report inhibition for CC(/C=C/c1ccccc1)=N\NC(=O)C1CC1(C)c1ccccc1 (centres undefined) please.
Response line: -3.18

Prompt line: Report inhibition for `Cc1ccc(C)c(NC(=O)CN(C)C(=O)COc2ccc3ccccc3c2)c1` please.
Response line: -15

Prompt line: Report inhibition for CC1CN(C(=O)c2ccc3c(c2)OCO3)OC(c2ccccc2)O1 (centres undefined) please.
Response line: 1.63

Prompt line: Report inhibition for `NCCCNC(=S)NCCCN(Cc1ccc(Cl)cc1)c1ccc(Br)cn1` please.
Response line: -0.49

Prompt line: Report inhibition for CC(CN1CCCCC1)c1ccccc1 (centres undefined) please.
Response line: -23.4

Prompt line: Report inhibition for CC1CCC2CCCCC2N1C(=O)c1cc([N+](=O)[O-])cc([N+](=O)[O-])c1 (centres undefined) please.
Response line: -3.75

Prompt line: Report inhibition for `COc1ccc(C[C@H]2CN3C(=NC[C@H]3C)N2CCNC(=O)CCC2CCCCC2)cc1` please.
Response line: 38.6

Prompt line: Report inhibition for `C/C=C(\C)C(=O)NCCN1C2=NC[C@H](Cc3ccc(O)cc3)N2C[C@@H]1Cc1ccc(OC)cc1` please.
Response line: -3.4

Prompt line: Report inhibition for `CC(=O)Nc1cccc(Nc2ccc(C#N)cc2)c1` please.
Response line: -8.06

Prompt line: Report inhibition for NC1=NC(=O)C2(COC(c3ccccc3Cl)OC2)S1 (centres undefined) please.
Response line: -9.62

Prompt line: Report inhibition for `CCN1C(=O)[C@@H]2[C@@H]3CN(S(=O)(=O)c4ccccc4C)[C@@H](c4ccc(Cl)cc4)[C@@H]3C(=O)C[C@@H]2C1=O` please.
Response line: 4.67
